- Target Of Assay: NADPH oxidase 4 (Homo sapiens)
- Test: NOX4-dependent H2O2 signal modulators, primary screen, NOX inhibitor project, cell-based, HEK293-NOX4, tetracycline-induced, Amplex Red fluorescence (AID 1160)
- Settings: 45 min, higher = more signal, called active from +8 up or from −8 down
// values below are reported z-score
Endpoint Name: z-score

>>> value_reported("CCN(CC)CC(O)CN1CCCCc2nc(C)c(C)cc21 (centres undefined)")
-0.622
>>> value_reported("CC1(C)O[C@H]2OC([C@H](O)CON3C(=O)c4ccccc4C3=O)[C@H](O)[C@H]2O1 (some centres undefined)")
0.146
>>> value_reported("COC(=O)[C@H](CCSC)NC(=O)CC=C[C@@H](C)CO")
-1.2
>>> value_reported("CO[C@@H]1COC(=O)[C@H](COCc2ccccc2)NC(=O)CC=C[C@@H](C)[C@H](OC)COC(=O)[C@@H](C)NC(=O)CC=C[C@H]1C")
0.773
>>> value_reported("C=CC[C@@H]1C=C[C@H](ON=C(C)CCN2CCCCc3nc(C)c(C)cc32)[C@@H](CO)O1")
-0.352
>>> value_reported("O=C(NN=C1C[C@@H](O)[C@@H](O)[C@@H]2[C@@H]3C(=O)N(Cc4ccc5c(c4)OCO5)C(=O)[C@@H]3CC[C@@H]12)OCc1ccccc1")
-1.08
>>> value_reported("CO[C@H]1C[C@@H]2C[C@H](O)CC(CC(=O)O[C@@H](C=CCC(C)C)C[C@@H]3CC[C@H](C)[C@@H](C1)O3)O2")
0.226
>>> value_reported("CCOC(=O)[C@H](CC(C)C)NC(=O)CCC1CC(OC(=O)NCc2ccc3c(c2)OCO3)CC2(CCCC(COC(=O)NCCc3ccccc3OC)O2)O1 (some centres undefined)")
0.886
>>> value_reported("COC(=O)[C@H](C)NC(=O)CCC1CC(OC(=O)NCc2ccc3c(c2)OCO3)CC2(CCCC(COC(=O)NCCC(C)C)O2)O1 (some centres undefined)")
0.437
>>> value_reported("CC(C)=CCCC(C)=CCON=C1C[C@@H](O)[C@@H](O)[C@@H]2[C@@H]3C(=O)N(Cc4ccc5c(c4)OCO5)C(=O)[C@@H]3CC[C@H]12")
-2.35
>>> value_reported("C[C@@H]1CC[C@@H](C(=O)O)N[C@H]1c1cccc(N2CCOCC2)c1")
0.65
>>> value_reported("COCCNC(=O)OCC1CCCC2(CC(OC(=O)NCc3cccc4ccccc34)CC(CCC(=O)N[C@@H](C)C(=O)OC)O2)O1 (some centres undefined)")
1.49
>>> value_reported("CCN1C(=O)[C@H]2[C@H]3[C@H](O)[C@H](O)CC(=NNC(=O)OCc4ccccc4)[C@@H]3CC[C@H]2C1=O")
0.525
>>> value_reported("CCOC(=O)CCN1C(=O)[C@H]2[C@@H]3C(=CC[C@H]2C1=O)C(=O)[C@H]1O[C@H]1[C@H]3O")
0.35
>>> value_reported("COC(=O)[C@@H]1CC[C@H](C)[C@@H](c2ccc(Br)cc2)N1C(=O)C(F)(F)F")
0.467
>>> value_reported("CCOC(=O)[C@H](Cc1ccccc1)NC(=O)CCC1CC(OC(=O)NCc2ccc3c(c2)OCO3)CC2(CCCC(COC(=O)NCCOc3ccccc3)O2)O1 (some centres undefined)")
0.519
>>> value_reported("O=C(NN=C1C[C@@H](O)[C@@H](O)[C@@H]2[C@@H]3C(=O)N(Cc4ccccc4)C(=O)[C@@H]3CC[C@H]12)OCc1ccccc1")
0.638
>>> value_reported("CC(CCN1CCCc2nc(C)c(C)cc21)=NO[C@H](C)c1cn([C@@H]2COC[C@H]2O)nn1")
-0.259
>>> value_reported("CC(C)CON=C1C[C@@H](O)[C@@H](O)[C@@H]2[C@@H]3C(=O)N(Cc4ccccc4)C(=O)[C@@H]3CC[C@H]12")
0.209
